System: 616215-338-R-J1-PDC spheroids with HUVEC/MSC, viability;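 further: spheroids exposed to agents for seven days before the viability read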
measurementDescription: Anticancer human tumor 616215-338-R-J1-PDC patient-derived colon adenocarcinoma cell line growth inhibition [PI3K]
conditionParameters: second compound 0.01 µM; first compound 0.0316 µM; stronger effect = lower value

>  <compound>
CC(=O)c1c(C)c2cnc(Nc3ccc(N4CCNCC4)cn3)nc2n(C2CCCC2)c1=O + CC(Nc1ccc2c(c1)OCCn1cc(N3C(=O)OCC3C(F)F)nc1-2)C(N)=O

>  <assaySystem>
616215-338-R-J1-PDC spheroids with HUVEC/MSC, viability;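 further: spheroids exposed to agents for seven days before the viability read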

>  <viability, T/C / %>
99.5

$$$$
>  <compound>
C=CC(=O)N1CCN(c2nc(=O)n(-c3c(C)ccnc3C(C)C)c3nc(-c4c(O)cccc4F)c(F)cc23)C(C)C1 (centres undefined) + COc1c(OCCCN2CCOCC2)ccc2c3n(c(=NC(=O)c4cnc(N)nc4)nc12)CCN3

>  <assaySystem>
616215-338-R-J1-PDC spheroids with HUVEC/MSC, viability;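 further: spheroids exposed to agents for seven days before the viability read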

>  <viability, T/C / %>
110

$$$$
>  <compound>
CC(C)NCC(C(=O)N1CCN(c2ncnc3c2C(C)CC3O)CC1)c1ccc(Cl)cc1 (centres undefined) + CC(Nc1ccc2c(c1)OCCn1cc(N3C(=O)OCC3C(F)F)nc1-2)C(N)=O

>  <assaySystem>
616215-338-R-J1-PDC spheroids with HUVEC/MSC, viability;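 further: spheroids exposed to agents for seven days before the viability read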

>  <viability, T/C / %>
88.5

$$$$
>  <compound>
CC1(C)CCC(Nc2ncc(C(F)(F)F)c(-c3c[nH]c4c(P(C)(C)=O)c(C#N)ccc34)n2)CN1 (centres undefined) + COc1c(OCCCN2CCOCC2)ccc2c3n(c(=NC(=O)c4cnc(N)nc4)nc12)CCN3

>  <assaySystem>
616215-338-R-J1-PDC spheroids with HUVEC/MSC, viability;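 further: spheroids exposed to agents for seven days before the viability read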

>  <viability, T/C / %>
40.2

$$$$
